Hey, just so you know, these numbers are from patent US20230134571A1.

Kindly state IC50 (µg/ml) with constrains for each of the entries shown.
target: HIV Env of isolate CNE52 (clade BC) (HIV); assay: cell-based or functional assay
Answers are plain numbers, in µg/mL.

Some entries whose results are on file:
binder="ePGDM9 (antibody, V domains shown) VH: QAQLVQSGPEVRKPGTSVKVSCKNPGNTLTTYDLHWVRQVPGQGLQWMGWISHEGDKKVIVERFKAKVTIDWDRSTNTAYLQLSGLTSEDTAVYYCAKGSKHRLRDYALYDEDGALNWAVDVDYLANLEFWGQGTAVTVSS VL: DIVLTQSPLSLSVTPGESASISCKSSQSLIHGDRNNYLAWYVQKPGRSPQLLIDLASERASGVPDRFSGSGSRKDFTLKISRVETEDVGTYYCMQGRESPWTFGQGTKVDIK" endpoint_value=1.85
binder="ePGDM13 (antibody, V domains shown) VH: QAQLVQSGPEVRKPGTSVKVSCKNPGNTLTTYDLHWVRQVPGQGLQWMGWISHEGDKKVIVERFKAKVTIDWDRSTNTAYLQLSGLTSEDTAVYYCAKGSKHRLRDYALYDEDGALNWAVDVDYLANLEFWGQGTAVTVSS VL: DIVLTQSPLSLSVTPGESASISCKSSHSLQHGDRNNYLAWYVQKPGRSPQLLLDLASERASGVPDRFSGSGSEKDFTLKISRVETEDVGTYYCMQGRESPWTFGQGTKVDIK" endpoint_value=2.83

Now consider the entry below.
Task item: Entry ePGDM5 (antibody, V domains shown) VH: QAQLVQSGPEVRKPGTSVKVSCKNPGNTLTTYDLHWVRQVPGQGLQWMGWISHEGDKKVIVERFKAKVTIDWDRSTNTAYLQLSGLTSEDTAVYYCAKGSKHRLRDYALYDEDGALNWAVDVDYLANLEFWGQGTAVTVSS VL: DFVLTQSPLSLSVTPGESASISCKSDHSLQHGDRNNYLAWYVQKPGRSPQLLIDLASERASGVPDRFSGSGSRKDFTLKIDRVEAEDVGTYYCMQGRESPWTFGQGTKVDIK : reported IC50 (µg/ml) with constrains = ?
Reply: 6.14
